This collection of values is drawn from paper PMC9327782.

The compounds listed here are annotated with their pIC50.
Target: VEGFR-2 (Homo sapiens, UniProt P35968)
Construct: purchased
Sequence (P35968 20-1356): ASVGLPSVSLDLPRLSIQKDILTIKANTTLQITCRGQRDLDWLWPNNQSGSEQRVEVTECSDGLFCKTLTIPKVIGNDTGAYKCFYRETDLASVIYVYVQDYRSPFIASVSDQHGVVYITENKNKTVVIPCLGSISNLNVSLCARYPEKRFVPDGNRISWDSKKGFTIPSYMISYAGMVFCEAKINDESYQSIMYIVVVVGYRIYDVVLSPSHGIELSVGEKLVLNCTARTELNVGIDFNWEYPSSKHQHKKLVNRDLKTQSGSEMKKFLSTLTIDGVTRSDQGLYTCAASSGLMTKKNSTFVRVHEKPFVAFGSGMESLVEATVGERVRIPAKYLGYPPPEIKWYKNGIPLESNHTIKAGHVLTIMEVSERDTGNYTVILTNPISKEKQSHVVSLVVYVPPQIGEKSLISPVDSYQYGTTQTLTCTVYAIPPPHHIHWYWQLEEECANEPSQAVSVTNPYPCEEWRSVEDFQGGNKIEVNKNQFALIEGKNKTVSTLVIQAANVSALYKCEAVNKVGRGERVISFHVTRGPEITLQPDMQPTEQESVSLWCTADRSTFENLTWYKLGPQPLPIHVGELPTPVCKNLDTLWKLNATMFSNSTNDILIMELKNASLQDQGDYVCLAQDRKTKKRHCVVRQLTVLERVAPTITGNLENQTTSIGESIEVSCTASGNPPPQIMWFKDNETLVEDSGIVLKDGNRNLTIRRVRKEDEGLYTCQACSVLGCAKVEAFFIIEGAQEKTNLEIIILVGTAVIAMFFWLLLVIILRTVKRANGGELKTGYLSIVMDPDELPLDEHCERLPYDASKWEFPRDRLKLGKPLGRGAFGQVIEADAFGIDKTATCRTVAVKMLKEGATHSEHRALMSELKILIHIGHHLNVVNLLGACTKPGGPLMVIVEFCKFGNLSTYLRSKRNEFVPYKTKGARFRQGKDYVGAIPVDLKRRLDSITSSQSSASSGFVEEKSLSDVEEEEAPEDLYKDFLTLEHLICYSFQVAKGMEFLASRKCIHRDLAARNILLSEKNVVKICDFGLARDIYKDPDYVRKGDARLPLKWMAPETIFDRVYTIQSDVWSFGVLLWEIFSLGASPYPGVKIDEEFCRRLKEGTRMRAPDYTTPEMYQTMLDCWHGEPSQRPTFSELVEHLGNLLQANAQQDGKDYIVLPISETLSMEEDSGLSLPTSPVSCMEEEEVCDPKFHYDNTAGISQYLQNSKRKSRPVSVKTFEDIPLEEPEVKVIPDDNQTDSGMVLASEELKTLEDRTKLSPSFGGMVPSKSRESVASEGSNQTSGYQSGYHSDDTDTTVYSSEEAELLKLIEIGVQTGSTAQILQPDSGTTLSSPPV
Test: In vitro VEGFR-2 kinase assay (ELISA kit)
Type: biochemical
Conditions: ELISA kit
Scale for pIC50: -log10 of concentration given in mol/L; no unit attached.

Examples from the recorded data:
COMPOUND	pIC50
COc1cccc(NC(=O)c2ccc(NC(=O)CSc3nc4cc(C)ccc4o3)cc2)c1 [Compound 12i]	6.81
Cc1ccc2oc(SCC(=O)Nc3ccc(C(=O)Nc4cccc(Cl)c4)cc3)nc2c1 [Compound 12l]	7.01
CC(C)(C)NC(=O)c1ccc(NC(=O)CSc2nc3ccccc3o2)cc1 [Compound 12d]	6.71
O=C(CSc1nc2ccccc2o1)Nc1ccc(C(=O)NNC(=O)c2cccc(Cl)c2)cc1 [Compound 13a]	6.57

Moving on to another compound below.
Recorded pIC50 of Cc1ccc2oc(SCC(=O)Nc3ccc(C(=O)NC(C)(C)C)cc3)nc2c1 [Compound 12f] , please. 6.58
